- Tested on: Lefty1
- Assay: Lefty1 binders on small-molecule microarrays, primary screen, biochemical, small-molecule microarray, 635/667 nm fluorescence (AID 1139)
- Stated conditions: small-molecule microarray binding, fluorescence 635/667; higher = more signal
Measurement label: composite z-score
Enter the number alone.

Some solved entries appear below for comparison.
INSERT INTO results (compound, assayed_target, measured_result) VALUES
  ('O=C1O[C@H](c2ccccc2)[C@H](c2ccccc2)N2[C@H]1[C@@H](C(=O)O)[C@]1(C(=O)Nc3ccccc31)[C@H]2c1ccc(O)cc1', 'Lefty1', -0.634),
  ('O=C1C[C@]2(c3ccc([N+](=O)[O-])cc3)C(=O)N(Cc3ccccc3)c3cc(CO)ccc3[C@H]2N1CC12CC3CC(CC(C3)C1)C2', 'Lefty1', -1.17);

Look up composite z-score: Cc1ccc(S[C@]2(C(=O)O)CC(=O)N(Cc3ccccc3Cl)[C@@H]2c2ccc(CO)cc2)cc1
-1.26

Try COCCOC(=O)N1C(=O)[C@@]2(c3cc(C#CCC(C(=O)OC)C(=O)OC)ccc31)[C@H](c1ccc(OCCO)cc1)N1[C@H](c3ccccc3)[C@H](c3ccccc3)OC(=O)[C@H]1[C@@H]2C(=O)N1CCN(c2ncccn2)CC1 next.
1.29

====

- Assay: adipocyte viability effects, profiling panel, cell-based, 3T3-L1 adipocytes, calcein-AM fluorescence, 48 h, basal (AID 1163); also: test concentration not given here
- Stated conditions: 3T3-L1 adipocytes viability, higher = more signal
Measurement label: z-score
Answer with a number only.

Below: 8 molecules and their reported z-score.
INSERT INTO measurements (molecule, measured_result) VALUES
  ('[N-]=[N+]=Nc1ccccc1[C@H]1OC(c2ccc(OCCCO)cc2)=N[C@@]1(CCS(=O)(=O)c1ccccc1)C(=O)N1CCCCC1', 1.5),
  ('CC(C)(C)OC(=O)CC[C@]1(C(=O)O)N=C(c2ccc(OCCCO)cc2)O[C@H]1c1ccccc1CN=[N+]=[N-]', -0.788),
  ('O=C1C2C=CC(C(O)c3cc(C(F)(F)F)cc(C(F)(F)F)c3)N(Nc3ccc([N+](=O)[O-])cc3)C2C(=O)N1c1ccccc1 (stereo not given)', 0.294),
  ('C[C@]1(C(=O)O)c2ccccc2C(=O)N(Cc2ccccc2)[C@H]1c1ccc(CO)cc1', 0.504),
  ('COC(=O)[C@@]1(Cc2ccccc2)[C@H]2c3cc(C(=O)N4CCCC4)n(Cc4cc(F)cc5c4OCOC5)c3C[C@H]2CN1C(=O)c1ccccc1', -0.888),
  ('COC(=O)[C@]1(CCS(=O)(=O)c2ccccc2)N=C(c2ccc(OCCCO)cc2)O[C@@H]1c1ccccc1CN=[N+]=[N-]', 0.65),
  ('C=C[C@@H](COC(C)=O)NS(=O)(=O)c1ccc(Br)cc1', -0.342),
  ('CN(C)C(=O)[C@]1(CCC(=O)OC(C)(C)C)N=C(c2ccc(OCCCO)cc2)O[C@@H]1c1ccccc1', -0.0645);

Find the recorded z-score belonging to [N-]=[N+]=Nc1ccccc1C[C@]1(C(=O)NCc2ccccc2)N=C(c2ccc(OCCCO)cc2)O[C@H]1c1ccccc1 and report it.
-0.651

For C=C[C@H](COC(C)=O)NS(=O)(=O)c1ccc(Br)cc1 then?
-0.569

====

- System: glycogen synthase kinase-3 (GSK3A per assay name; protocol says GSK3B)
- Assay: GSK3 binders on small-molecule microarrays, primary screen, biochemical, small-molecule microarray, 635 nm fluorescence, GSK3A (AID 1103); also: the record names both GSK3A and GSK3B
- Stated conditions: small-molecule microarray binding, fluorescence 635 nm; higher = more signal
Quick reference for composite z-score among some compounds
No unit in the answer, only the number.

Examples from the recorded data:
INSERT INTO assay_data (compound, measured_result) VALUES
  ('COc1cc(CO)cc(I)c1O[C@H]1C=C(C(=O)NCCO)C[C@@H](N(Cc2ccc(F)cc2)C(=O)C2CCCO2)[C@@H]1O (stereo partly specified)', 0.1),
  ('COC(=O)[C@@]1(Cc2ccc(OC)cc2)[C@H]2c3cc(C(=O)N(C)C)n(CCc4c[nH]c5ccc(O)cc45)c3C[C@H]2CN1C(=O)c1ccccc1', 1.12),
  ('C=CC1c2cc(O)c(OC)cc2CCN1Cc1sc2ccccc2c1Cl (stereo unspecified)', 0.112);

composite z-score lookup needed for COC(=O)C1(Cc2ccccc2)C=C2C(=C(C(C)C)C(=O)C2C)CN1 (stereo unspecified) , thanks.
-1.51

What do you get for CC(C)C(O)C1C=CC2C(=O)N(C)C(=O)C2N1Nc1ccccc1 (stereo unspecified) ?
0.686

And CC(=O)n1cc(C(O)C2C=CC3C(=O)N(Cc4ccccc4)C(=O)C3N2n2cnnc2)c2ccccc21 (stereo unspecified) ?
-0.243

For O=C1C[C@]2(c3ccc([N+](=O)[O-])cc3)C(=O)N(Cc3ccccc3)c3cc(CO)ccc3[C@H]2N1CC12CC3CC(CC(C3)C1)C2 then?
-0.855

// same read-out, input: COc1ccc([Si](C)(C)[C@@H]2[C@@H](CC(=O)N3CCC[C@H]3CO)O[C@]3(C(=O)N(Cc4ccc(N5C(=O)c6cccc7cccc5c67)cc4)c4ccccc43)[C@H]2C)cc1
1.29
